test system: NCI-H522 lung; assay: NCI tumour cell line growth inhibition, 48 h
I'd be grateful if you could share measured TGI for these entries.
Give bare numbers, in µM.

COc1ccccc1/C=C1\Sc2scc(-c3ccc(O)c(O)c3)[n+]2C1=O ... 24.8

Please look up its TGI: `CC(C)[C@]12O[C@H]1[C@@H]1O[C@@]13[C@@]1(C)CCC4=C(COC4=O)[C@@H]1C[C@@H]1O[C@@]13C2=O` 0.328

====

test system: MDA-MB-435; assay: NCI tumour cell line growth inhibition, 48 h
MEASURED METRIC: GI50

State recorded GI50 for all listed compounds.
1. CCCS(=O)(=O)Nc1ccc(F)c(C(=O)c2c[nH]c3ncc(Cl)cc23)c1F
2. Nc1nc2c(c3ncccc13)C(c1cccc(Br)c1)Cc1ncccc1-2 (stereo unspecified)
3. O=C1C=CC(=O)N1C1CCCCCCCCCCC1

337 nM
256 nM
13700 nM

State recorded GI50 for all listed compounds.
1. COc1ccc(C(=O)c2cc(OC)c3c(c2)OCO3)cc1O
2. O=C(O)CNC(=O)C(CS)Cc1ccccc1 (stereo unspecified)
3. N=C(N)N=Nc1ccc(NN=C(N)N)c2c1ncc1c2nc2sccn21

1: 22.1 nM; 2: > 25000 nM; 3: 19500 nM

====

system: COLO 205 colon; experiment: NCI tumour cell line growth inhibition, 48 h
Residues, ends and D or L forms follow the SMILES beside them. *: point of attachment. Boc = CC(C)(C)OC(=O)*
MEASURED METRIC: TGI

State recorded TGI for all listed compounds.
1. Cc1cc2[nH]c(Cl)c(/C=C3\C(=O)Nc4ccccc43)c2cc1O
2. C/C1=C\[C@H](C)C[C@H](C)OC(=O)C[C@H](c2ccc(O)cc2)NC(=O)[C@H](Cc2ccc(O)c(I)c2)N(C)C(=O)[C@H](C)NC(=O)[C@@H](C)C1

30.1 µM
> 25 µM

State recorded TGI for all listed compounds.
1. Nc1nc(-c2ccccc2)c(Cl)c(-c2cc(Cl)ccc2O)n1
2. N#C/C(=C\c1ccccc1)c1nc(-c2cc3ccccc3oc2=O)cs1

1: > 100 µM; 2: > 100 µM

State recorded TGI for all listed compounds.
1. COC(=O)CNC(=O)C(Cc1ccccc1)NC(=O)C(Cc1ccccc1)NC(=O)OC(C)(C)C (stereo not drawn) (Boc-Phe-Phe-Gly-OMe; configuration not given here)
2. O=C1C=CC(=O)N1C1CCCCCCCCCCC1
3. Cc1cc(C)c(S(=O)(=O)N2CCN(S(=O)(=O)c3c(C)cc(C)cc3C)OCCCCCO2)c(C)c1
4. CN(C)Cc1cc(N=Nc2ccccc2)ccc1O
5. CC(CC[C@@H](C)C1CCC2[C@@H]3CC(O)C4CC(O)[C@@H](O)C[C@]4(C)C3CC[C@@]21C)C(C)(C)C (stereo partly drawn)
6. CCOP(=O)(O)C(Nc1ccc(N=Nc2ccccc2)cc1)c1ccc(C(Nc2ccc(N=Nc3ccccc3)cc2)P(=O)(O)OCC)cc1 (stereo not drawn)
7. O=c1c2ccc3cccc4c(=O)c5ccc6cccc1c6c5-c2c34

1: 69.5 µg/mL; 2: 8.16 µM; 3: > 100 µM; 4: > 100 µM; 5: > 100 µM; 6: 28.8 µM; 7: > 50 µM

State recorded TGI for all listed compounds.
1. O=C(O)CNC(=O)C(CS)Cc1ccccc1 (stereo not drawn)
2. C=C1CCC2C(C)(CO)C(O)CCC2(C)C1CC(O)/C(=C/CO)C(=O)O (stereo not drawn)
3. CC(=O)NCCc1c(-c2[nH]c3ccccc3c2CCNC(C)=O)[nH]c2ccccc12
4. Fc1cnc(NC2CC2)nc1-c1cnc2ccc(N3CCOCC3)cn12
5. O=C1C2C=CC(n3[nH]c(=O)n(Cc4ccccc4)c3=O)CC2C(=O)N1c1cccc(Cl)c1 (stereo not drawn)
6. Nc1cc(-c2ccccc2)nn1-c1nsc2ccccc12
7. CN(C)CCCNC(=O)N/N=C/c1ccc([N+](=O)[O-])cc1
8. C[C@@H]1C[N+]2([O-])[C@H]3C4=CCC[C@@H]4CC[C@H]3[C@@]3(C)OC(=O)CC[C@]34CC[C@H]1[C@@H]42 (stereo partly drawn)

["> 25 µM", "> 100 µM", "> 100 µM", "0.428 µM", "> 100 µM", "> 100 µM", "> 100 µM", "> 60 µM"]

State recorded TGI for all listed compounds.
1. O=C(Cn1ccnc1[N+](=O)[O-])c1ccccc1
2. CCCS(=O)(=O)Nc1ccc(F)c(C(=O)c2c[nH]c3ncc(Cl)cc23)c1F

1: > 100 µM; 2: 17.3 µM

State recorded TGI for all listed compounds.
1. S=C(S)N1CCN(c2cccc(Cl)c2)CC1
2. O=C1C2c3[nH]c4ccccc4c3C3CCCC3C2C(=O)N1c1ccccc1 (stereo not drawn)
3. COc1cccc(/C=C2\CCC(CCN(C)C)(C3=CCCC3)C2=O)c1 (stereo not drawn)
4. Oc1ccc2ccccc2c1CN(Cc1c(O)ccc2ccccc12)C1CCCCC1

1. > 100 µM
2. > 100 µM
3. 21.3 µM
4. 29.6 µM

State recorded TGI for all listed compounds.
1. CN1CCN([C@H]2C[C@H]3[C@@H]4CC=C5C[C@@H](N6CCCC6)CC[C@]5(C)[C@H]4CC[C@]3(C)[C@H]2O)CC1
2. O=C1OCC=C1COC1OC(CO)C(O)C(O)C1O (stereo not drawn)
3. CCN(CC)C(=O)C[n+]1c2ccccc2n2cc(N)ccc21
4. Cc1cc(O)c(C(=O)O)c2c1C(=O)c1c(O)c(OCC(O)C(O)C(O)C(O)CO)c(O)c(O)c1C2=O (stereo not drawn) (tested in a mixture with another compound)

["> 100 µM", "> 100 µM", "> 100 µM", "> 100 µM"]

State recorded TGI for all listed compounds.
1. O=c1cc(-c2ccccc2)oc2cc(Oc3nnnn3-c3ccccc3)ccc12
2. O=C1/C(=C\c2ccccc2)C2/C(=C\c3ccccc3)C(=O)/C(=C\c3ccccc3)C2/C1=C\c1ccccc1 (stereo not drawn)
3. COc1cc(NCCCCCN=C(N)N)c2ncccc2c1
4. CN(C)CCCOc1ccc(OCCCN(C)C)c2c1C(=O)c1ccccc1C2=O
5. COc1cc(C2SC(N)=Nc3c2c(C)nn3C(=O)c2ccc(Cl)cc2)cc(OC)c1OC (stereo not drawn)

["> 100 µM", "2.94 µM", "9.3 µM", "1.82 µM", "> 10 µM"]
